Molecular target: rh beta tryptase (Homo sapiens, UniProt P20231)
Construct: purchased Promega
Sequence (P20231 31-275): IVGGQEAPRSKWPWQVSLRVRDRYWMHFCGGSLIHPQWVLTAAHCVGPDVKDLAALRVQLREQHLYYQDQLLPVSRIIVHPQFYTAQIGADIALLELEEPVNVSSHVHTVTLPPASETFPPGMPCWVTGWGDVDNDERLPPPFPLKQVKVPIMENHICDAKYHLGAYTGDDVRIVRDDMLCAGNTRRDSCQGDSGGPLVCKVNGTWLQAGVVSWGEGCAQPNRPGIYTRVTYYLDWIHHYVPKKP
Test: Tryptase inhibition test (cleavage of N-p-tosyl-Gly-Pro-Lys-para-nitroaniline, p-nitroaniline measured at 405 nm)
Format: biochemical
Settings: inhibition of rh beta tryptase at 10 μM test substance; substrate N-p-tosyl-Gly-Pro-Lys-para-nitroaniline 0.6 mM, pH 7.4, 37° C., 5 minutes
experimental_endpoint: inhibition at 10 µM (%)

N=C(N)c1ccc(CCc2nc3cc(C(=O)N(Cc4ccc(CN)cc4)CC4CCCCC4)ccc3n2CCCNC(=O)Cc2ccccc2)cc1 [Example 152] : 65
COc1cccc(CN(Cc2ccc(CN)cc2)C(=O)c2ccc3c(c2)nc(CCc2ccc(C(=N)N)cc2)n3CCCN2CCN(c3ccccc3C)CC2)c1 [Example 80] : 53
N=C(N)c1ccc(CCc2nc3cc(C(=O)N(Cc4ccccc4)Cc4ccc(CN)cc4)ccc3n2CCCNC(=O)Cc2ccccc2)cc1 [Example 104] : 74
